target: human CDK9/CyclinT kinase complex (Homo sapiens (Human)); test: In Vitro CDK9/CyclinT Assay (IMAP fluorescent polarization); type: biochemical; settings: Table 1
Sequence (P50750 whole entry): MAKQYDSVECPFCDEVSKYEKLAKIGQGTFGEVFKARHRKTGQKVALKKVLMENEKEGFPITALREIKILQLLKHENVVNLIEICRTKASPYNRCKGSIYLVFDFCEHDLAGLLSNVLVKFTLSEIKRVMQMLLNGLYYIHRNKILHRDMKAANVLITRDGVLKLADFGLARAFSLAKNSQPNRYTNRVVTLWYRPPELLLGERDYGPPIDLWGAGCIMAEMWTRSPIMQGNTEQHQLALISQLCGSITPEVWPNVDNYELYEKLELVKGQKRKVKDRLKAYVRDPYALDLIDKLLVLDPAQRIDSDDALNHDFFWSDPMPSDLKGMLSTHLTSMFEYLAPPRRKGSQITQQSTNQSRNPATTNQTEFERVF
Sequence (O60563 whole entry partner): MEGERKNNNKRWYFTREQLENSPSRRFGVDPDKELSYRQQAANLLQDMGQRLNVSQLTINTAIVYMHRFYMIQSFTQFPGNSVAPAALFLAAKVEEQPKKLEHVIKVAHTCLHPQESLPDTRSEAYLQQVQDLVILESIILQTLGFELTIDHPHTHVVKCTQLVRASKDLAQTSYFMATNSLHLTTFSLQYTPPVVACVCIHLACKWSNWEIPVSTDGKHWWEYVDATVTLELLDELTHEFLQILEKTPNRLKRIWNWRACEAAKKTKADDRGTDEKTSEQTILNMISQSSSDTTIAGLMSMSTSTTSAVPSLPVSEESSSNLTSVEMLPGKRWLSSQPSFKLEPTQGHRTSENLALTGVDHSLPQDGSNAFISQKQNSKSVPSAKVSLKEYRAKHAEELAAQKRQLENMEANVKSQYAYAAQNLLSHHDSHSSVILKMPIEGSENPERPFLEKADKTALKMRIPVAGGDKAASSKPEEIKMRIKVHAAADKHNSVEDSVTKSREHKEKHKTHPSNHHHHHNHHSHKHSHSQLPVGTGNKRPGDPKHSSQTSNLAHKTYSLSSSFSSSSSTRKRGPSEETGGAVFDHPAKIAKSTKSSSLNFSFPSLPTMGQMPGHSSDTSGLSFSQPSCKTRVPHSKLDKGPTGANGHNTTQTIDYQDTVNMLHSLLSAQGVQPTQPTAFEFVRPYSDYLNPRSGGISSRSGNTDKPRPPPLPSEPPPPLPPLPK
MEASURED_PARAMETER: IC50

Asked: # lookup: IC50 of COc1ccc(Nc2cc(-c3cc(F)c(F)cc3OC)ncn2)cc1NC=O [Example 84]
Given back: < 1000 nM

Asked: # lookup: IC50 of CNCc1cc(Nc2cc(-c3ccccc3OC)ncn2)ccc1OC [Example 37]
Given back: < 100 nM

Asked: # lookup: IC50 of COc1ccc(Nc2cc(-c3ccccc3OCc3ccccc3)ncn2)cc1N [Example 71]
Given back: < 1000 nM

Asked: # lookup: IC50 of COc1ccccc1-c1cc(Nc2ccc(Cl)c(C(=O)NN)c2)ncn1 [Example 7]
Given back: < 100 nM

Asked: # lookup: IC50 of CNc1cc(Nc2cc(-c3ccccc3OC)ncn2)ccc1OC [Example 99]
Given back: < 1000 nM

Asked: # lookup: IC50 of COc1ccc(Nc2cc(-c3ccccc3OC)ncn2)cc1C(=O)NCc1ccccc1 [Example 23]
Given back: < 1000 nM

Asked: # lookup: IC50 of COc1ccc(Nc2cc(-c3ccc(F)cc3OC)ncn2)cc1C(N)=O [Example 128]
Given back: < 1000 nM

Asked: # lookup: IC50 of COC(=O)c1cc(Nc2cc(-c3ccccc3OC)ncn2)ccc1O [Example 21]
Given back: < 1000 nM

Asked: # lookup: IC50 of COc1ccccc1-c1cc(Nc2ccc(O)c([N+](=O)[O-])c2)ncn1 [Example 12]
Given back: < 1000 nM
